Consider the following compounds; for each one, report its bioavailability.
- ASSAY NOTES: Pharmacokinetics after oral gavage in fasted SD rats
- Type: in vivo
- PROTOCOL CONDITIONS: rat, plasma, 10 mg per kilogram body weight, PO 10 mg per kilogram
Numbers only, in %.

Some solved entries appear below for comparison.
> print(dat)
                                   compound  result
1  CC(C)n1nccc1C(=O)N[C@H](C(=O)Nc1ccc2c(c1)OC1(CCC(F)(F)CC1)CC2C(=O)N1CC(F)(F)C1)C1CCCCCC1 (stereo partly shown)    57.6
2  CC(C)[C@H]1C[C@@H](C(=O)N2CC(F)(F)C2)c2ccc(NC(=O)[C@@H](NC(=O)c3ccnn3C(C)C)C3CCCCCC3)cc2O1    34.8
3  CC(C)[C@H]1C[C@@H](C(=O)N2CC(F)(F)C2)c2ccc(NC(=O)[C@@H](NC(=O)c3ccnn3C(C)C)C(C3CC3)C3CC3)cc2O1    63.5

Now for a further compound.
Q: Please report the recorded bioavailability for `CC(C)n1nccc1C(=O)N[C@H](C(=O)Nc1cc2c(cc1F)[C@H](C(=O)N1CC(F)(F)C1)C[C@H](C1CC(F)(F)C1)O2)[C@H]1CC[C@H](C)CC1` .
Result: 70.7

====

Consider the following molecules; for each one, report its AUC.
- ASSAY NOTES: Pharmacokinetics after oral gavage in fasted SD rats
- Assay type: in vivo
- PROTOCOL CONDITIONS: PO 10 mg per kilogram, plasma, 0.25-24 hours
- Protocol: Compounds of the present application were formulated in 40% PEG400/10% solutol/2% Tween 80/48% saline (v/v/v/v), and administered via oral gavage (PO) at the dosages of 10 mg per kilogram body weight in fasted SD rats. Plasma samples were collected at 0.25, 0.5, 1, 2, 4, 8, and 24 hours post dosing. Compound concentration was determined by LC-MS and pharmacokinetics parameters were calculated by WinNonlin 8.2 using Non-Compartmental Analysis model.
Express your answer as a number followed by its unit.

For each entry beneath this line, provide reported AUC.
1. CC(C)[C@H]1C[C@@H](C(=O)N2CC(F)(F)C2)c2ccc(NC(=O)[C@@H](NC(=O)c3ccnn3C(C)C)C3CCCCCC3)cc2O1
2. CC(C)n1nccc1C(=O)N[C@H](C(=O)Nc1ccc2c(c1)OC1(CCC(F)(F)CC1)CC2C(=O)N1CC(F)(F)C1)C1CCCCCC1 (stereo partly shown)
3. CC(C)[C@H]1C[C@@H](C(=O)N2CC(F)(F)C2)c2ccc(NC(=O)[C@@H](NC(=O)c3ccnn3C(C)C)C(C3CC3)C3CC3)cc2O1
4. CC(C)n1nccc1C(=O)N[C@H](C(=O)Nc1cc2c(cc1F)[C@H](C(=O)N1CC(F)(F)C1)C[C@H](C1CC(F)(F)C1)O2)[C@H]1CC[C@H](C)CC1

Result:
["18980 ng · h/m", "7840 ng · h/m", "9703 ng · h/m", "6093 ng · h/m"]

====

Consider the following compounds; for each one, report its IC50.
- Tested on: HEK-Blue IL-17 cells with rhIL-17A/A
- ASSAY NOTES: HEK-Blue IL-17 cell assay (SEAP reporter, rhIL-17A/A stimulation)
- Format: cell-based, human
- PROTOCOL CONDITIONS: Homo sapiens, HEK-Blue, 20 h, 20 hours incubation, absorbance at 405 nm, read-out: IC50 in HEK-Bule cell Assay
- Experimental: • 1. The test Compounds were 3-fold serial diluted from 10 mM for 10 doses in DMSO. • 2. Prepare Reference Compounds (IL-17A-Inhibitor-1) were 3-fold serial diluted from 1 mM for 10 doses in DMSO. • 3. Prepare 1000× Positive control (1 mM IL-17A-Inhibitor-1) and 1000× vehicle control (100% DMSO). • a) Cells were cultured as the HEK-Blue™ IL-17 technical data sheet recommended. […] RLU signal (LUMcmpd) is calculated for each well. % Inhibition is calculated as follow: […]
Numbers only, in nM.

Some solved entries appear below for comparison.
> print(dat)
                                   compound  result
1  CC(C)[C@H]1C[C@@H](C(=O)N2CC(F)(F)C2)c2ccc(NC(=O)[C@@H](NC(=O)c3ccnn3C(C)C)C3CCCCCC3)cc2O1    46.6
2  CC(C)n1nccc1C(=O)N[C@H](C(=O)Nc1ccc2c(c1)OCCC2C(=O)N1CC(F)(F)C1)C1CCCCCC1 (stereo partly drawn)     287

Q: Please report the recorded IC50 for `CC(C)[C@@H]1C[C@@H](C(=O)N2CC(F)(F)C(F)(F)C2)c2ccc(NC(=O)[C@@H](NC(=O)c3ccnn3C(C)C)C3CCCCCC3)cc2O1` .
Result: 199

These measurements were taken from patent US20250011303A1.
